- Test system: Glut4
- assay.text: Glut4 mRNA expression in adipocytes (real-time PCR)
- Format: cell-based, human
- protocol.conditions: Table 18; differentiating adipocytes; control = treatment with ISIS 342673
In the oligonucleotide strings, read from the 5' end, every base follows the letter of its sugar. An asterisk marks phosphorothioate; unmarked linkages are phosphodiester. Other units and linkages are bracketed, terminal groups are in braces. A string of capitals states the bases alone. e = 2'-O-(2-methoxyethyl) (MOE); [5mC] = 5-methylcytosine
Each entry below carries its reported GLUT4 mRNA.

328109 (antisense eA*eA*eA*eG*eA*eA*eG*eT*eA*eT*eA*eT*eG*e[5mC]*eA*eT*eA*eG*eG*eA*eA) [compound 328109] :: 106.6 percentage of control

Item: 328108 (antisense eA*eA*eA*e[5mC]*eT*eT*eG*eT*eT*eA*eA*eT*eT*eG*eA*e[5mC]*eT*eG*eT*e[5mC]*eA) [compound 328108] | GLUT4 mRNA: 94.9 percentage of control

328105 (antisense e[5mC]*e[5mC]*eT*e[5mC]*eA*eA*eT*eT*eA*eT*eT*eG*eG*eA*eA*eA*eT*e[5mC]*eA*e[5mC]*eA) [compound 328105] yielded GLUT4 mRNA of 94.2 percentage of control
